TGT: T1, recombinant human FcRn (Sino Biological Inc. Cat. No. CT009-H08H) (human, UniProt P55899 24-290; P61769 21-119)
T1 construct: Bought protein; also called hFcRn (SINO); immobilized FcRn
ASSAY COMMENT: scFv competition ELISA vs biotinylated parent murine antibody, captured FcRn, pH 6
ENDPOINT LABEL: fold decrease in IC50 (relative to humanized parent scFV) (fold)

BINDER: H4 VH1 scFv with humanized parental Vκ1 (scFv) scFv: QVQLVQSGAELKKPGASVKLSCKASGYTFTSYGISWVKQATGQGLEWIGEIYPRSGNTYYNEKFKGRATLTADKSTSTAYMELRSLRSEDSAVYFCARSTTVSAPGVWGTGTTVTVSSGGGGSGGGGSGGGGSDIQMTQSPSYLSASVGDRVTITCKASDHINNWLAWYQQKPGQAPRLLISGATSLETGVPSRFSGSGTGKDYTLTISSLQTEDFATYYCQQYWSTPYTFGGGTKVEIK
TEST VALUE: 6.5
